system: RXF 631; assay: NCI tumour cell line growth inhibition, 48 h
Active and inactive are the calls of the source. Cut-off read from the data, not from the text of the source: active = GI50 up to about 1.1 µM and inactive = higher.
Exercise: for every item that follows, state its recorded GI50.

Ask: Please report the measured GI50 for ClCc1ccc(C2OCCO2)cc1
Result: > 100 µM (inactive)

Ask: Output GI50 of COc1ccc(C(C2=C(O)CC(C)OC2=O)C2=C(O)CC(C)OC2=O)cc1 (centres undefined)
Result: > 100 µM (inactive)

Ask: Note GI50 for the molecule shown: c1ccc(COCC2OC3c4ccccc4COC3C2OCc2ccccc2)cc1 (centres undefined)
Result: > 100 µM (inactive)

Ask: Write down GI50 measured for item O=C(/C=C/c1ccc(OCC(=O)N2CCN(c3ccccc3)CC2)cc1)c1ccc(Cl)cc1
Result: 34.8 µM (inactive)

Ask: For the molecule CCCCCCCCCCCCC(Br)C(C)=O (centres undefined) , report GI50.
Result: > 100 µM (inactive)

Ask: // Input: O=C(C=P(c1ccccc1)(c1ccccc1)c1ccccc1)CC(=S)CC(=O)C=P(c1ccccc1)(c1ccccc1)c1ccccc1 . Output its GI50 only.
Result: > 100 µM (inactive)

Ask: Entry CCOC12OC3=C(CC1CC1=C(CCC1=O)O2)C(=O)CC3 (centres undefined) needs its GI50 filled in; supply it.
Result: > 100 µM (inactive)

Ask: Check the records and state GI50 for N#CC1(C=O)c2ccccc2C=CN1C(=O)c1ccccc1 (centres undefined)
Result: 56.5 µM (inactive)

Ask: Determine from records and report GI50 for CC1=CC(=O)NP(=O)(Oc2ccc(C)cc2)N1 (centres undefined)
Result: > 100 µM (inactive)

* * *

system: HCT-116; assay: NCI tumour cell line growth inhibition, 48 h
Activity calls are given as the source filed them. Cut-off read from the data, not from the text of the source: active = GI50 up to about 1.1 µM and inactive = higher.
Entry note: the call must match one of active, inactive

Ask: Short answer needed: outcome of this test for COC(=O)c1c(OC(C)=O)ccc2c1c1c(n2C)C(=O)c2ccccc2C1=O ?
Result: inactive

Ask: Can you look up the reported call for O=[N+]([O-])C(=C(Sc1ccccc1)Sc1ccccc1)C(Cl)=C(Cl)Cl for me?
Result: active

Ask: Which result was noted for this compound in the test: Cc1cc(C)c2c(n1)S(=O)(=O)N(CCCN1CCN(c3cccc(Cl)c3)CC1)C(C(=O)c1ccccc1)=C2O
Result: inactive

Ask: For this compound, state the assay outcome: CN(NC(=O)c1ccco1)C1=NCCCCN1
Result: inactive

Ask: Tell me the recorded outcome of this test for COc1cccc(CC(=O)N2CCN(CCCc3ccccc3)CC2)c1 .
Result: inactive

Ask: Recorded test outcome, item C=C(COCO)C(C)=O
Result: inactive

Ask: Fill in: this test's call for COC(=O)[C@@H]1C[C@@H](O)CN1C(=O)c1ccc([N+](=O)[O-])cc1[N+](=O)[O-] is ___
Result: inactive

Ask: Can you look up the reported call for NC1=NN(c2ccccc2)C(=O)C1C(=O)CCC(=O)Nc1cccc(Cl)c1 (stereo unspecified) for me?
Result: inactive

Ask: Lab log entry: Cc1c(Cl)ccc2[s+]snc12 — outcome as called in the assay?
Result: inactive

Ask: Kindly provide the recorded test outcome for the following compound: Cc1cccc2c1[nH]c1[nH]c(=O)[nH]c(=O)c12
Result: inactive

Ask: Recorded test outcome, item O=C(Nc1ccccc1)n1cc(-c2ccccn2)c(N2CCOCC2)n1
Result: inactive
